The measured values listed here are drawn from PubChem BioAssay (NCI).

# Lookup of reported TGI keyed by entry
# System: 786-0 renal
# assayComment: NCI tumour cell line growth inhibition, 48 h
measuredEndpoint: TGI

compound	result
N#CC(/C(=N/NC(=O)C(=O)NN)C(=O)NC12CC3CC(CC(C3)C1)C2)c1ccccc1 (stereo not given)	> 100 µM
Nc1ccncc1/C=C1/C(=O)Nc2ccccc21	> 100 µM
CCOC(=O)N1CCN(C(=O)c2ccc(C(F)(F)F)nc2Nc2cc(Cl)ccc2C)CC1	> 100 µM
O=C(/C=C/c1c(O)ccc2ccccc12)c1ccc2ccccc2c1	> 100 µM
CCC1OC2C(CC=C(C)C)=C3OC(C)(O)C(C)(CC)C(OC(=O)c4ccccc4)C3=C3OC(=O)C=C1C32 (stereo not given)	> 100 µM
Cc1ccc(N(CSc2ccc(Cl)cc2)CSc2ccc(Cl)cc2)cc1	7.66 µM
CC1(C)OCC2OC3(c4nc(C#N)c(N)o4)OC(C)(C)OC3C2O1 (stereo not given)	> 100 µM
CNC(=S)N/N=C(C)\C(=N/NC(=S)NC)c1ccccc1	> 100 µM
COc1ccc(C(=O)C(CO)Oc2ccccc2OC)cc1OC (stereo not given)	> 100 µM
O=c1cc(-c2ccccc2)[nH]c2cc3c(cc12)OCO3	> 93 µM
CCCCCCCCCc1cc(=O)c2c(O)cccc2o1	> 100 µM
COc1cc2c(cc1OC)C13CCN4CC5=CCOC6CC(=O)N2C1C6C5CC43O (stereo not given)	> 100 µM
O=C(c1ccccc1)c1c(-c2ccccc2)[nH]n(-c2ccc([N+](=O)[O-])cc2)c(=O)c1=O	> 100 µM
N#CC1Nc2ccccc2[C@@H](O)C1O (stereo not given in full)	> 100 µM
CCN(CC)c1ccc2cc(-c3nnc(-c4ccccc4)o3)c(=O)oc2c1	> 82.1 µM
CCN1CCN(c2ccc(Nc3ccnc4ccc5nn(C)nc5c34)cc2)CC1	22.6 µM
O=C(CN1CCCCC1)N1CCc2c([nH]c3ccccc23)C1c1cccnc1 (stereo not given)	> 100 µM
N#CC1(C2SCCS2=O)C2=C(C(=O)c3ccccc3C2=O)N2CCCC21 (stereo not given)	18.7 µM
COc1ccc(-c2cc(-c3cccn3C)c(C#N)c(N)n2)cc1OC	> 100 µM
O=C1/C(=C\c2ccc([N+](=O)[O-])o2)SC2N=C(COc3ccc(Cl)cc3)NN12 (stereo not given)	13.7 µM
